# test_target: Histone deacetylase 1 (Homo sapiens)
# experiment_summary: Inhibition of HDAC1 in human U937 cells at 5 uM […]
# Assay type: cell-based
# test_parameters: U-937
Activity calls are given as the source filed them. The calls are words filed in the database; no cut-off is given here.
property: inhibition

Here's what some known entries look like.
O=C(NCCSSCCNC(=O)/C(Cc1c[nH]c2ccccc12)=N/O)/C(Cc1c[nH]c2ccccc12)=N/O = 40%
O=C(CCc1c[nH]c2ccc(Br)cc12)NCCSSCCNC(=O)CCc1c[nH]c2ccc(Br)cc12 = Active
CSCCNC(=O)/C(Cc1c[nH]c2ccc(Br)cc12)=N/O = 40%
O=C(NCCCCCSSCCCCCNC(=O)/C(Cc1c[nH]c2ccc(Br)cc12)=N/O)/C(Cc1c[nH]c2ccc(Br)cc12)=N/O = 40%

Name the reported inhibition value associated with the compound `O=C(NCCSSCCNC(=O)/C(Cc1c[nH]c2ccc(OCc3ccccc3)cc12)=N/O)/C(Cc1c[nH]c2ccc(OCc3ccccc3)cc12)=N/O` Active

What about `CO/N=C(\Cc1c[nH]c2ccc(Br)cc12)C(=O)NCCSSCCNC(=O)/C(Cc1c[nH]c2ccc(Br)cc12)=N/OC` ? Active

What about `O=C(NCCCCSSCCCCNC(=O)/C(Cc1c[nH]c2ccc(Br)cc12)=N/O)/C(Cc1c[nH]c2ccc(Br)cc12)=N/O` ? 40%

What about `O=C(NCCSSCCNC(=O)/C(Cc1c[nH]c2cc(Br)ccc12)=N/O)/C(Cc1c[nH]c2cc(Br)ccc12)=N/O` ? 60%

This collection of values is drawn from ChEMBL document CHEMBL2177007.
